Target: Serine hydrolase RBBP9 (Homo sapiens) (UniProt O75884)
Sequence (O75884 whole entry, looked up): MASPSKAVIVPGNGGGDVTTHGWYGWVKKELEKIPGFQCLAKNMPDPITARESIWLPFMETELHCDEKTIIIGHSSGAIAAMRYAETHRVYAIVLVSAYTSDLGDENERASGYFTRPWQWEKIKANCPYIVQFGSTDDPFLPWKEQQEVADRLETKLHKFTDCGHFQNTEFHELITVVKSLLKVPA
Experiment: human RBBP9 inhibitors, primary screen, biochemical, fluorescence polarization, FP-Rh probe, HTS (AID 1515);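 also: plate controls were DMSO wells with RBBP9 for no effect and wells lacking RBBP9 protein for full effect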
Details: recombinant RBBP9, FP-Rh probe fluorescence polarization; at 7.94 µM; stronger effect = higher value
Hit rate of the full screen: of about 220,000 compounds, about 440 (0.2%) were called active. The full list was thinned out, with actives kept by preference.
VALUE TYPE: inhibition

In: Tell me the measured inhibition of `COc1ccc(-n2nnnc2SCC(=O)NCc2cccs2)cc1` , please.
Out: -4.68% (inactive)

In: Item under review: COc1cc(C2C(C(=O)OCCC#N)=C(C)NC3=C2S(=O)(=O)c2ccccc23)cc(OC)c1OC (stereo not drawn) . Reported inhibition?
Out: 21.6% (active)

In: Request the reported inhibition associated with `Cc1cc([N+](=O)[O-])nn1Cc1ccc(F)cc1`
Out: 16.8% (active)

In: Which inhibition reading was recorded for the compound `CCCc1nc(SCC(=O)Nc2ccc(S(=O)(=O)N(C)C)cc2)c2ccccc2n1` ?
Out: -8.27% (inactive)

In: Quick check: inhibition of `O=C(CNc1ccc(F)cc1F)NC(=O)NCc1ccco1` ?
Out: 5.92% (inactive)

In: Entry `Cc1cc([N+](=O)[O-])nn1CCCC(=O)Nc1cccnc1Cl` has what inhibition?
Out: -5.84% (inactive)

In: Reported inhibition, compound `CN(C)c1nnnn1-c1ccc(Cl)cc1` : ____
Out: 3.3% (inactive)

In: What inhibition value was documented for this compound, COCCOC(=O)C1=C(C)Nc2nc(C)nn2C1c1ccccc1 (stereo not drawn) ?
Out: 0.85% (inactive)

In: I'd like to know its inhibition. The compound in question is `Cc1onc(-c2ccccc2Cl)c1C(=O)OCC(=O)c1ccccc1`
Out: -7.59% (inactive)

In: Sample `Cc1ccc(Sc2ccncc2S(N)(=O)=O)cc1` — what was its inhibition?
Out: -3.25% (inactive)

In: Please report the recorded inhibition for `O=C(CCCC(=O)N(CC(=O)NC1CCCC1)Cc1ccccc1Cl)Nc1ccccn1` .
Out: 16.9% (active)

In: Return reported inhibition; argument: Cc1ccc(C(C(=O)NC2CCCC2)N(Cc2ccco2)C(=O)CCC(=O)Nc2ccccn2)cc1 (stereo not drawn)
Out: -4.24% (inactive)

In: Given `O=[N+]([O-])c1ccc(N2CCN(c3ccc(O)cc3)CC2)c(Cl)c1` , state its recorded inhibition.
Out: -8.4% (inactive)

In: Suppose we examine the compound `COc1ccc(-c2nnn(Cc3nc(N)nc(N4CCCCC4)n3)n2)cc1` ; what inhibition value has been reported?
Out: -9.6% (inactive)

In: Request the reported inhibition associated with `COC(=O)Cc1ccc(NC(=S)NCc2ccco2)cc1`
Out: -2.67% (inactive)

In: // query inhibition value for entry CSCCC(NC(=O)c1ccco1)C(=O)OCC(=O)Nc1ncc(Cl)c(C)c1Cl (stereo not drawn)
Out: -5.55% (inactive)

In: Look up inhibition for this compound: `CCC(CC)c1nnc(NC(=O)/C=C/c2ccco2)s1`
Out: -5.03% (inactive)

In: Which value of inhibition has been reported for `CCC(=O)Nc1c(C)n[nH]c1C` in the records?
Out: -4.5% (inactive)

In: Entry `COc1cc2c3c(c1)/C(=C1/SC(=S)NC1=O)C(=O)N3C(C)(C)C=C2C` : reported inhibition = ?
Out: -0.69% (inactive)

In: What inhibition value was documented for this compound, `COc1ccc(-n2nnnc2SCc2nc(N)nc(N3CCOCC3)n2)cc1` ?
Out: 14.8% (active)

In: What inhibition value was documented for this compound, `Cc1ccc2nc(SCc3cn4c(C)cc(C)nc4n3)[nH]c2c1` ?
Out: -9.49% (inactive)

In: Given `Cc1cc(NC(=O)CSc2nccn2-c2ccc([N+](=O)[O-])cc2)no1` , state its recorded inhibition.
Out: -5.53% (inactive)

In: Fill in the blank: the reported inhibition of `CCOc1ccccc1N(CC(=O)NC1CCCCC1)C(=O)CCCC(=O)Nc1ccccn1` is ____.
Out: -3.56% (inactive)

Every entry's value here was drawn from PubChem BioAssay AID1515.
